target: Hexose transporter 1 (Plasmodium falciparum); experiment: ST_JUDE_LEISH: Cytotoxicity at 2uM final concentration against transgenic Leishmania Mexicana promastigotes LmPfHT that are glucose transport deficient and complemented with the Plasmodium falciparum hexose transporter. Activity is measured by DNA content using SYBR green in vitro; type: functional
Quick reference for inhibition among some compounds
Answer format: numeric, % implied, no suffix.

{"columns": ["Compound", "Unit symbol", "inhibition"],
 "data": [
  ["Cc1ccc(CNC(=O)[C@H](Cc2ccccc2)Nc2ccnc(NCC3CCCCC3)n2)cc1", "%", 4.83]
]}

Prompt line: Look up inhibition: CC(=O)Nc1ccc(CN2CCC(CNC(=O)c3cc(-c4cccc(C(F)(F)F)c4)cs3)C2)cc1 (stereo not given)
Response line: 0.04

Prompt line: Param item: "O=C(/C=C/c1cccc(C(F)(F)F)c1)NCCCCCN1CCN(C(=O)Nc2ccc(Cl)c(Cl)c2)CC1"
Response line: 2.33

Prompt line: Param item: "Cc1ccc(C)c(CC(=O)N2CCC(n3c(C)nc4ccc(F)cc43)CC2)c1"
Response line: 3.03

Prompt line: Param item: COc1ccc(CN2CCCC(OC(c3ccc(F)cc3)c3ccc(F)cc3)C2)c(O)c1 (stereo not given)
Response line: 8.89

Prompt line: Param item: COc1ccc(C(=O)CCC(=O)N(Cc2ccc(-c3ccc(CNCCc4ccc(S(C)(=O)=O)cc4)cn3)cc2)C2CC3CCC2C3)cc1F (stereo not given)
Response line: 9.69

Prompt line: Param item: "COc1ccc2[nH]ccc(=NN=Cc3ccc(N(C)C)cc3)c2c1"
Response line: 3.94

Prompt line: Param item: "Cc1noc(C)c1-c1ccc2c(Nc3ccc(C#N)cc3)c(C(N)=O)cnc2c1"
Response line: 4.62

Prompt line: Param item: "Cc1cc(N(C)CCCN2CCCCC2)nc(Nc2ccc(Cl)cc2)n1"
Response line: 2.38

Prompt line: Param item: "CN1CCCN(Cc2cccc(-c3cccc(NC(=O)c4cccc(Cl)c4)c3)c2)CC1"
Response line: 9.81

Prompt line: Param item: "CCC(C)(C)n1c(C)cc2c3c(N)nc(N)nc3ccc21"
Response line: 77.2
